assay_remarks: probe aNOTCH3 binding on compound microarray – biochemical, small-molecule microarray, 635/667 nm fluorescence, primary screen (AID 1120);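 also: probe is a biotin-tagged antibody raised against NOTCH3 rather than NOTCH3 protein; score merges spot fluorescence near 667 nm with spot signal to noise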
stated_conditions: higher = more signal
observation_type: composite z-score
No unit in the answer, only the number.

[[record]]
molecule = "COc1ccc(C(O)C2C=CC3C(=O)N(C)C(=O)C3N2NC(=O)OC(C)(C)C)c2ccccc12 (stereo not drawn)"
quantitative_result = 0.424

[[record]]
molecule = "COC(=O)[C@@]1(Cc2ccc(OC)cc2)[C@H]2c3cc(C(=O)N4CCCC4)n(CCc4ccc(O)c(O)c4)c3C[C@H]2CN1C(=O)c1ccccc1"
quantitative_result = 0.144

[[record]]
molecule = "CC(C)NC(=O)[C@@H]1c2ccccc2C(=O)N(C(C)C)[C@H]1c1ccc(CO)cc1"
quantitative_result = -0.215


Exercise: Please give the documented composite z-score of CCCCC(=C=CC[C@@H](O)c1ccc(CO)o1)CCO
Solution: 0.0261

Exercise: Tell us which composite z-score value is on record for C=CCC(OC(C)=O)[C@@H]1[C@@H](N(Cc2ccc(-c3cccc(C(F)(F)F)c3)o2)C(=O)c2cccc3ccccc23)c2cc(OCCCO)ccc2N1C(=O)Cc1ccc2ccccc2c1 (stereo partly drawn)
Solution: -0.0465

Exercise: Supply reported composite z-score belonging to this molecule: CCOC(=O)C1=C[C@@H](C(C)C)N(S(=O)(=O)c2ccc(C)cc2)[C@H]1c1ccccc1F
Solution: 0.0576

Exercise: Please list composite z-score recorded for the molecule COc1ccc([Si](C)(C)[C@H]2[C@H](CCO)O[C@@]3(C(=O)N(Cc4ccccc4)c4ccc(N5CCCCC5=O)cc43)[C@@H]2C)cc1
Solution: -0.0918

Exercise: Supply measured composite z-score of CN1CCC(CCCO)=CC1c1cccs1 (stereo not drawn) in your reply.
Solution: -0.0048

====

assay_remarks: small molecules captured by biotinylated probe aFGF10 – biochemical, small-molecule microarray, fluorescence 635/667, stem cell growth factor project, primary screen (AID 1071);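 also: score merges 667 nm spot intensity and signal to noise from triplicate slides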
stated_conditions: higher = more signal
Items are presented alongside their recorded composite z-score.

[[record]]
compound = "CC(C)[Si](C#C[Si](C(C)C)(C(C)C)C(C)C)(O[C@H](C)c1cn(Cc2ccccc2)nn1)C(C)C"
observation_type = "composite z-score"
result = 0.422

[[record]]
compound = "C=CC[C@@]1(C(=O)N2CCCCC2)N=C(c2ccc(OCCCO)cc2)O[C@@H]1c1ccccc1N=[N+]=[N-]"
observation_type = "composite z-score"
result = 0.555

[[record]]
compound = "O=c1cccc(-c2ccccc2Cl)o1"
observation_type = "composite z-score"
result = 0.366

[[record]]
compound = "[N-]=[N+]=Nc1ccccc1C[C@]1(C(=O)NCC(O)CO)N=C(c2ccc(OCCCO)cc2)O[C@H]1c1ccccc1 (stereo partly specified)"
observation_type = "composite z-score"
result = 0.0717

[[record]]
compound = "O=C1C2C=CC(C(O)C=Cc3ccc([N+](=O)[O-])cc3)N(Nc3ccccc3F)C2C(=O)N1c1ccccc1 (stereo unspecified)"
observation_type = "composite z-score"
result = 1.03

[[record]]
compound = "CCCCC(O)C1C=CC2C(=O)N(C)C(=O)C2N1N1CCCCC1 (stereo unspecified)"
observation_type = "composite z-score"
result = 0.591


Kindly review the next compound as well.
Exercise: Return composite z-score for the following compound: C=CCNC(=O)[C@@H]1[C@H]2C(=O)O[C@H](c3ccccc3)[C@H](c3ccccc3)N2[C@H](c2ccc(OCCO)cc2)[C@@]12C(=O)N(C(=O)OCCOC)c1ccc(C#CCNC(N)=O)cc12
Solution: 0.399

====

assay_remarks: probe aCHRDL2 binding to arrayed compounds – biochemical, biotinylated probe, 635/667 nm fluorescence, primary screen (AID 1100)
stated_conditions: small-molecule microarray, higher = more signal
Response field class: string, computed from recorded composite z-score by ranges bottom = under 0.3, middle = from 0.3 up to 1, top = 1 and over

// below: answered compounds
[[record]]
compound = "COc1ccc([Si](C)(C)[C@@H]2[C@@H](CC(=O)N3CCC[C@H]3CO)O[C@]3(C(=O)N(Cc4cccc(I)c4)c4ccccc43)[C@H]2C)cc1"
discrete_label = "bottom"

[[record]]
compound = "O=C1O[C@H](c2ccccc2)[C@H](c2ccccc2)N2[C@H]1[C@@H](C(=O)N1CCN(c3ncccn3)CC1)[C@]1(C(=O)Nc3ccc(C#CC4=CCCCC4)cc31)[C@H]2c1ccccc1OCCO"
discrete_label = "bottom"


Here is the next item to consider.
Exercise: Lab log: CC(=O)NCCCC[C@@H]1NC(=O)[C@H]2C[C@@H](C(=O)NCCCCCNC(=O)CS)[C@@H](c3ccc(O)cc3)N2C1=O — assign composite z-score category
Solution: middle

====

target_or_test_system: Streptavidin (Streptomyces avidinii) (UniProt P22629)
Sequence (P22629 whole entry, looked up): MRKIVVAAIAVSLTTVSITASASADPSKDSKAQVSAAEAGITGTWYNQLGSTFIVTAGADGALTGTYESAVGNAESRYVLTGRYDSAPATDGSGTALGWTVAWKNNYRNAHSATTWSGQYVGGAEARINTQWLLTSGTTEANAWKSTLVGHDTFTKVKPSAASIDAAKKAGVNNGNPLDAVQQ
assay_remarks: compounds binding control protein streptavidin – biophysical, small-molecule microarray, 635/667 nm fluorescence, artefact control for SMM compound annotation, primary screen (AID 1147);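 also: signal reflects streptavidin binding to arrayed compounds as a control protein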
stated_conditions: higher = more signal
Assign class by composite z-score: not lower than -0.3 means Yes; lower than -0.3 means No.

[[record]]
molecule = "Cc1ccc(S[C@]2(C(=O)NCC(C)C)CC(=O)N(Cc3cc(C(F)(F)F)cc(C(F)(F)F)c3)[C@@H]2c2ccc(CO)cc2)cc1"
discrete_label = "No"


Exercise: Is composite z-score at least -0.3? Consider O=C1NC(=O)C2C1C=CC(C(O)c1ccc(I)cc1)N2Nc1ccccn1 (stereo not given)
Solution: Yes

Exercise: Kindly determine if composite z-score recorded for COc1cc(OC)c(C(O)C2C=CC3C(=O)NC(=O)C3N2Nc2ccccn2)cc1Br (stereo not given) is above or exactly -0.3.
Solution: Yes

====

target_or_test_system: Streptavidin (Streptomyces avidinii) (UniProt P22629)
assay_remarks: compounds binding control protein streptavidin – biophysical, small-molecule microarray, 635/667 nm fluorescence, artefact control for SMM compound annotation, primary screen (AID 1147);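 also: signal reflects streptavidin binding to arrayed compounds as a control protein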
stated_conditions: higher = more signal
Binary classification by composite z-score, with 0.6 as an inclusive lower bound for class 1; all other cases are class 0.

[[record]]
compound = "O=C(NC1CC1)[C@@H]1c2ccccc2C(=O)N(Cc2cc(F)cc(C(F)(F)F)c2)[C@H]1c1ccc(CO)cc1"
discrete_label = "class 0"

[[record]]
compound = "NC(=O)NCC#Cc1ccc2c(c1)[C@]1(C(=O)N2)[C@H](C(=O)O)[C@H]2C(=O)O[C@H](c3ccccc3)[C@H](c3ccccc3)N2[C@@H]1c1ccc(O)cc1"
discrete_label = "class 1"

[[record]]
compound = "O=C1NC(=O)C2C1C=CC(C(O)C1CC=CCC1)N2Nc1ccccn1 (configuration not stated)"
discrete_label = "class 0"


Exercise: Decide: is the reported value of composite z-score for CCCCC(=C=CC[C@H](O)c1cccc(OCCO)c1)C[C@H](O)c1ccccn1 equal to or greater than 0.6?
Solution: class 0

Exercise: Say whether CC(C)C(=C=CC[C@H](O)c1ccc(CO)o1)CCO shows composite z-score of 0.6 or more.
Solution: class 0

Exercise: For this compound, is measured composite z-score 0.6 or higher? COC(=O)c1c(CC[C@@H](CO)NC(=O)N[C@H](Cc2ccccc2)Cn2cc(-c3ccccn3)nn2)oc(C(C)=O)c1C(=O)OC
Solution: class 1

====

compounds and their reported z-score
assay_remarks: growth of efflux-deficient E. coli DRC39 – strain DRC39, OD650, 24 h, E. coli filamentation inducers, primary screen (AID 1178);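 also: growth measured as culture turbidity by optical density at 650 nm; test concentration not given here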
stated_conditions: E. coli DRC39 acrAB, higher = more signal, called active from +8 up or from −8 down
Hey, just send me the number, nothing else.

[[record]]
compound = "CC(C)=CCCC(C)=CC(O)C1C=CC2C(=O)N(c3ccccc3)C(=O)C2N1Nc1ccc(C(C)C)cc1 (stereo not given)"
observation_type = "z-score"
quantitative_result = -0.427

[[record]]
compound = "COCCCNC(=O)[C@@]1(Cc2ccccc2)N=C(c2ccc(OCCCO)cc2)O[C@H]1c1ccccc1CN=[N+]=[N-]"
observation_type = "z-score"
quantitative_result = 0.0347

[[record]]
compound = "CCCCC(=C=CC[C@@H](O)c1ccc(CO)o1)CCO"
observation_type = "z-score"
quantitative_result = 1.54

[[record]]
compound = "Cc1ccc(/C=C/C=O)cc1"
observation_type = "z-score"
quantitative_result = 0.562

[[record]]
compound = "CCCCCN1CC=CC23O[C@@H]4C=CCOC(=O)[C@@H]4[C@H]2C(=O)N(C(C)CO)[C@@H]3C1=O (stereo not given in full)"
observation_type = "z-score"
quantitative_result = -0.232


Exercise: Annotate the compound CC(C)[Si](C#CCCCC#N)(O[C@H](c1ccccc1)c1cn(Cc2cccc(Cl)c2)nn1)C(C)C with its measured z-score.
Solution: -0.0251

Exercise: Read off the recorded z-score for COCCOC(=O)N1C(=O)[C@@]2(c3cc(C#Cc4ccc(OC)cc4)ccc31)[C@H](c1ccc(O)cc1)N1[C@H](c3ccccc3)[C@H](c3ccccc3)OC(=O)[C@H]1[C@@H]2C(=O)Nc1nc2ccccc2s1
Solution: -0.184

The measurements presented in this section are drawn from PubChem BioAssay.
